Attribution: patent EP4603105A1

molecular target: GDP-bound KRAS wild-type protein (Homo sapiens); assay: Binding to KRAS by surface plasmon resonance (SPR), dissociation constant KD; conditions: Single Cycle Kinetics
Sequence (P01116 1-188 isoform P01116-2): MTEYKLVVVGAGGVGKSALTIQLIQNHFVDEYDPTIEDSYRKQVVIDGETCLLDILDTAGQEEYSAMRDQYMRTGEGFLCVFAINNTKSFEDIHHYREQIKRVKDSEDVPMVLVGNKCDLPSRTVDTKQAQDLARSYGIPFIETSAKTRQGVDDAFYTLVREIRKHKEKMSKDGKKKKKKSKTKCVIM
endpoint.name: Kd (nM)
Give a bare numeral; the unit nM is implied.

See these solved cases before continuing.
CCO[C@@H]1C[C@H]2C(=O)NC3(CCC3)C(=O)N(C)[C@@H](C3CCCC3)C(=O)N(C)[C@H](C(=O)N3CCOCC3)CC(=O)N(C)[C@@H](CC(C)C)C(=O)N[C@@H]([C@@H](C)CC)C(=O)N(C)CC(=O)N(C)[C@H]3C[C@H]4C[C@H]4CN(C3=O)[C@@H](Cc3ccc(C(F)(F)F)cc3)C(=O)N(C)CC(=O)N[C@@H](CCc3cc(F)c(C(F)(F)F)c(F)c3)C(=O)N2C1 [PP0829]: 0.081
C#CCN1CC(=O)N(C)[C@H]2C/C=C\CCN(C2=O)[C@@H](Cc2ccc(C(F)F)cc2)C(=O)N(C)CC(=O)N[C@@H](CCc2cc(F)c(C(F)(F)F)c(F)c2)C(=O)N2C[C@H](OC(C)C)C[C@H]2C(=O)N(C)C2(CCC2)C(=O)N(C)[C@@H](C(CC)CC)C(=O)N(C)[C@H](C(=O)N(C)C)CC(=O)N(C)[C@@H](COCCC)C(=O)N[C@@H]([C@@H](C)CC)C1=O [PP3490]: 0.3
CCC[C@H]1C(=O)N[C@@H]([C@@H](C)CC)C(=O)N(C)CC(=O)N(C)[C@H]2C/C=C\CCN(C2=O)[C@@H](Cc2ccc(C(F)(F)F)cc2)C(=O)N(C)CC(=O)N[C@@H](CCc2ccc(C(F)(F)F)c(OC)c2)C(=O)N2CC3(CC3)C[C@H]2C(=O)NC2(CCC2)C(=O)N(C)[C@@H](C(CC)CC)C(=O)N(C)[C@H](C(=O)N(C)C)CC(=O)N1C [PP3408]: 0.32
CCO[C@@H]1C[C@H]2C(=O)NC3(CC(C)(C)C3)C(=O)N(C)[C@@H](C3CCCC3)C(=O)N(C)[C@H](C(=O)N(C)CC)CC(=O)N(C)[C@@H]([C@H](C)OC)C(=O)N[C@@H]([C@@H](C)CC)C(=O)N(C)CC(=O)N(C)[C@H]3C/C=C\CCN(C3=O)[C@@H](Cc3ccc(C)cc3)C(=O)N(C)CC(=O)N[C@@H](CCc3cc(F)c(C(F)(F)F)c(F)c3)C(=O)N2C1 [PP3226]: 0.3
CCO[C@@H]1C[C@H]2C(=O)NC3(CC(C)(C)C3)C(=O)N(C)[C@@H](C3CCCC3)C(=O)N(C)[C@H](C(=O)N(C)CC)CC(=O)N(C)[C@@H]([C@H](C)OC)C(=O)N[C@@H]([C@@H](C)CC)C(=O)N3CCC[C@H]3C(=O)N(C)[C@H]3C/C=C\CCN(C3=O)[C@@H](Cc3ccc(C(F)(F)F)cc3)C(=O)N(C)CC(=O)N[C@@H](CCc3ccc(C(F)(F)F)c(OC)c3)C(=O)N2C1 [PP3222]: 1.4

Turning now to a further molecule:
Dear colleague, I am looking for the recorded Kd of the following molecule: CCO[C@@H]1C[C@H]2C(=O)NC3(CCC3)C(=O)N(C)[C@@H](C3CCCC3)C(=O)N(C)[C@H](C(=O)N(C)C)CC(=O)N(C)[C@@H](CC(C)C)C(=O)N[C@@H]([C@@H](C)CC)C(=O)N(C)CC(=O)N(C)[C@H]3CCCCCN(C3=O)[C@@H](Cc3ccc(F)cc3)C(=O)N(C)CC(=O)N[C@@H](CCc3ccc(C(F)(F)F)c(Cl)c3)C(=O)N2C1 [PP0972]
0.15
